target: interaction of the PAS B domains of HIF-2α and HIF-1β (Homo sapiens, UniProt Q99814); construct: His6Gb1-TEV-GEFKGL-HIF2α (240-350aa)-G; assay: Alphascreen protein protein interaction assay
Sequence (Q99814 240-350): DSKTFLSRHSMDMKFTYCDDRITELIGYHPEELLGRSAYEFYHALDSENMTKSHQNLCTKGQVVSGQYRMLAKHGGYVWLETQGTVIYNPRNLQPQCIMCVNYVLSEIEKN
Task for the reader: assign each of the following compounds its reported IC50.

Query string: Which IC50 is listed for Cn1nc(C(F)(F)F)cc1-c1sc(S(C)(=O)=O)c2c1CCC(F)(F)[C@H]2O [Example 46a] ?
Result string: > 1000 nM

Query string: Cool, now CS(=O)(=O)c1sc(-c2cnc(Cl)c(F)c2)c2c1[C@H](O)C(F)(F)CC2 [Example 61a]
Result string: 50 to 1000 nM

Query string: Cool, now Cn1nccc1-c1sc(S(C)(=O)=O)c2c1CC(F)(F)[C@H]2O [Example 47a]
Result string: > 1000 nM

Query string: Cool, now Cc1cc(-c2sc(S(C)(=O)=O)c3c2CC(F)(F)[C@H]3O)n(C)n1 [Example 49a]
Result string: > 1000 nM

Query string: Cool, now CS(=O)(=O)c1sc(-c2cncc(Cl)c2)c2c1[C@H](O)C(F)(F)CC2 [Example 56a]
Result string: 50 to 1000 nM

Query string: Cool, now Cn1cc(-c2sc(S(C)(=O)=O)c3c2CC(F)(F)[C@H]3O)cn1 [Example 35a]
Result string: > 1000 nM

Query string: Cool, now CS(=O)(=O)c1sc(-c2cncc(F)c2)c2c1[C@H](O)C(F)(F)CC2 [Example 58a]
Result string: > 1000 nM

Query string: Cool, now CS(=O)(=O)c1sc(-c2cncc(C(F)(F)F)c2)c2c1[C@H](O)C(F)(F)CC2 [Example 62a]
Result string: 50 to 1000 nM

Query string: Cool, now CS(=O)(=O)c1sc(-c2cccc(F)c2)c2c1[C@H](O)C(F)(F)C2 [Example 28a]
Result string: > 1000 nM

Query string: Cool, now CS(=O)(=O)c1sc(-c2cncc(C#N)c2)c2c1[C@H](O)C(F)(F)CC2 [Example 59a]
Result string: > 1000 nM

Query string: Cool, now CS(=O)(=O)c1sc(-c2cccc(F)c2)c2c1[C@H](O)C(F)(F)CC2 [Example 37a]
Result string: > 1000 nM

Query string: Cool, now CS(=O)(=O)c1sc(-c2ccccc2F)c2c1[C@H](O)C(F)(F)C2 [Example 27a]
Result string: > 1000 nM

Query string: Cool, now Cc1nn(C)cc1-c1sc(S(C)(=O)=O)c2c1CCC(F)(F)[C@H]2O [Example 39a]
Result string: > 1000 nM

Query string: Cool, now Cc1cc(-c2sc(S(C)(=O)=O)c3c2CCC(F)(F)[C@H]3O)n(C)n1 [Example 50a]
Result string: > 1000 nM

Query string: Cool, now CS(=O)(=O)c1sc(-c2ccccc2)c2c1[C@H](O)C(F)(F)C2 [Example 25a]
Result string: > 1000 nM

Query string: Cool, now CS(=O)(=O)c1sc(-c2cc(F)nc(Cl)c2)c2c1[C@H](O)C(F)(F)CC2 [Example 63a]
Result string: < 50 nM

Query string: Cool, now CS(=O)(=O)c1sc(-c2ccccc2)c2c1[C@H](O)CCC2 [Example 36a]
Result string: > 1000 nM

====

target: HIF2a (240-350)-G (Homo sapiens, UniProt Q99814); construct: The protein, HIF2a (240-350)-G, was prepared by recombinant overexpression; experiment: ITC
pKd: −log10 of the molar value.
Task for the reader: assign each of the following compounds its reported pKd.

Query string: What pKd appears in the records for this compound with HIF2a (240-350)-G (Homo sapiens, UniProt Q99814)? CS(=O)(=O)c1sc(-c2cccc(F)c2)c2c1[C@H](O)C(F)(F)CC2 [Example 37a]
Result string: < 6.00

Query string: Cool, now CS(=O)(=O)c1sc(-c2ccccc2F)c2c1[C@H](O)C(F)(F)C2 [Example 27a]
Result string: < 6.00

Query string: Cool, now CS(=O)(=O)c1sc(-c2cccc(F)c2)c2c1[C@H](O)C(F)(F)C2 [Example 28a]
Result string: < 6.00

Query string: Cool, now CS(=O)(=O)c1sc(-c2cc(F)nc(Cl)c2)c2c1[C@H](O)C(F)(F)CC2 [Example 63a]
Result string: 6.00 to 7.30

Query string: Cool, now CS(=O)(=O)c1sc(-c2ccccc2)c2c1[C@H](O)C(F)(F)C2 [Example 25a]
Result string: < 6.00
